- tested_system: hNedd4-WW3* (Homo sapiens)
- Construct: The DNA fragment of the third WW domain of both proteins was amplified; GST (N, cleaved yes); made in house; host or cells: E. coli BL21(DE3)
- Sequence (P46934 840-873 limits assumed): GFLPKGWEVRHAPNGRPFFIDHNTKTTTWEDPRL
- procedure_details: Isothermal titration calorimetry, hNedd4-WW3*
- Format: binding
- settings: ITC, 25 °C, 10 mM sodium phosphate, pH 7.4; mean of three separate runs ± one SD
- Protocol: In order to compare the affinities between the U24 proteins and WW domains, the equilibrium dissociation constant (KD) for the interaction between each U24:Nedd4-WW domain pair tested above was determined using ITC. […] After overnight dialysis, the cleaved Nedd4 WW domains in phosphate buffer, with different salt concentrations, were ready for use in ITC experiments. […] The peptide amounts were determined gravimetrically and calibrated according to the absorbance at 280 nm in 6 M Guanidine HCl. […]
No end group written: not given here.
observed_property: Kd (µM)
One number for each entry, in µM.

Data request: I am curious: what Kd value has been reported for MTHETPPPSYNDVML [U24-7] ?
Data returned: 1.98

----------
- tested_system: rNedd4-WW2 (Rattus norvegicus)
- Construct: GST fusion proteins of the second and third WW domains (WW2 and WW3/4) of rNedd4; GST (N, cleaved yes); made in house; host or cells: E. coli BL21(DE3)
- Sequence (Q62940 402-435 limits assumed): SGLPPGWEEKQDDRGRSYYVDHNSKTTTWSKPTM
- procedure_details: Isothermal titration calorimetry, rNedd4-WW2
- Type: binding
- settings: ITC, 25 °C, 10 mM sodium phosphate, pH 7.4; mean of three separate runs ± one SD
No end group written: not given here.
observed_property: Kd
Remember to follow the number with its unit.

Data request: I am curious: what Kd value has been reported for MTHETPPPSYNDVML [U24-7] ?
Data returned: 87 µM

----------
- tested_system: rNedd4-WW3/4 (Rattus norvegicus, UniProt Q62940)
- Construct: GST fusion proteins of the second and third WW domains (WW2 and WW3/4) of rNedd4; GST (N, cleaved yes); made in house; host or cells: E. coli BL21(DE3)
- Sequence (Q62940 459-492 limits assumed): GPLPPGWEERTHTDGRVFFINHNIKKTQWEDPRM
- procedure_details: Isothermal titration calorimetry, rNedd4-WW3/4
- Type: binding
- settings: ITC, 25 °C, 10 mM sodium phosphate, pH 7.4; mean of three separate runs ± one SD
No end group written: not given here.
observed_property: Kd (µM)
One number for each entry, in µM.

Data request: Quick check: Kd on rNedd4-WW3/4 (Rattus norvegicus, UniProt Q62940), item MTHETPPPSYNDVML [U24-7] ?
Data returned: 21

----------
- tested_system: rNedd4-WW3/4 (Rattus norvegicus, UniProt Q62940)
- Construct: GST fusion proteins of the second and third WW domains (WW2 and WW3/4) of rNedd4; GST (N, cleaved yes); made in house; host or cells: E. coli BL21(DE3)
- procedure_details: Isothermal titration calorimetry, rNedd4-WW3/4
- Format: binding
- settings: ITC, 25 °C, 10 mM sodium phosphate, pH 7.4, extra 100 mM NaCl; three runs
No end group written: not given here.
observed_property: pKd
Give bare numbers, as −log10 of the molar value.

Data request: Quick check: pKd on rNedd4-WW3/4 (Rattus norvegicus, UniProt Q62940), item MTHETPPPSYNDVML [U24-7] ?
Data returned: 4.84

----------
- tested_system: rNedd4-WW3/4 (Rattus norvegicus, UniProt Q62940)
- Construct: GST fusion proteins of the second and third WW domains (WW2 and WW3/4) of rNedd4; GST (N, cleaved yes); made in house; host or cells: E. coli BL21(DE3)
- procedure_details: Isothermal titration calorimetry, rNedd4-WW3/4
- Assay type: binding
- settings: ITC, 25 °C, 10 mM sodium phosphate, pH 7.4, extra 500 mM NaCl; three runs
No end group written: not given here.
observed_property: Kd
Remember to follow the number with its unit.

Data request: I am curious: what Kd value has been reported for MTHETPPPSYNDVML [U24-7] ?
Data returned: 13.2 µM
